# normalised viability per entry
- System: HCC1143
- Test Method Notes: normalised viability (% of control), CellTiter-Blue; higher = more viable cells (about 100 = DMSO control)
- Settings: 100 nM; incubation time: 72 h
Output should be the measured figure followed by the unit it is expressed in.

- Molecule: "CN(Cc1cnc2nc(N)nc(N)c2n1)c1ccc(C(=O)N[C@@H](CCC(=O)O)C(=O)O)cc1 [Methotrexate]"
  normalised viability: "69.3%"
- Molecule: "CO[C@@H]1[C@H](N(C)C(=O)c2ccccc2)C[C@H]2O[C@]1(C)n1c3ccccc3c3c4c(c5c6ccccc6n2c5c31)C(=O)NC4"
  normalised viability: "134%"

// switching to the query molecule
Entry CNC(=O)c1ccccc1Sc1ccc2c(/C=C/c3ccccn3)n[nH]c2c1 needs its normalised viability filled in; supply it.
101%

====

- Tested on: MDA-MB-231
- Test Method Notes: normalised response (% of control), CellTox Green; higher = less cell death (100 = DMSO, 0 = benzethonium chloride kill control)
- Settings: incubation time: 72 h
Quantity Measured: normalised response (%)
Write down the numeric answer in % and omit the unit.

Query normalised response for Cc1cn(-c2cc(NC(=O)c3ccc(C)c(Nc4nccc(-c5cccnc5)n4)c3)cc(C(F)(F)F)c2)cn1 [Nilotinib] (10000 nM)
84.3

Hello, please tell me recorded normalised response for this one: CO[C@@H]1[C@H](N(C)C(=O)c2ccccc2)C[C@H]2O[C@]1(C)n1c3ccccc3c3c4c(c5c6ccccc6n2c5c31)C(=O)NC4 [Midostaurin] (1000 nM)
61.2

Supply measured normalised response of CN(C)C(=N)NC(=N)N [Metformin] (100000 nM) in your reply.
69.3

Please look at this compound and report its normalised response: Cc1cn(-c2cc(NC(=O)c3ccc(C)c(Nc4nccc(-c5cccnc5)n4)c3)cc(C(F)(F)F)c2)cn1 [Nilotinib] (1000 nM)
68.5

====

- System: MDA-MB-436
- Test Method Notes: normalised response (% of control), CellTiter-Glo; higher = more viable cells (100 = DMSO, 0 = benzethonium chloride kill control)
- Settings: incubation time: 72 h
Some compounds, each annotated with its measured normalised response.
Provide a numeric answer, followed by its unit.

- Compound: "CC(C)n1cnc2c(NCCc3ccc(O)cc3)nc(-c3csc4ccccc34)nc21 [StemRegenin 1] (100 nM)"
  normalised response: "101%"
- Compound: "CCNC(=O)CCC/C=C\\C[C@@H]1[C@@H](/C=C/[C@@H](O)CCc2ccccc2)[C@H](O)C[C@@H]1O [Bimatoprost] (55 nM)"
  normalised response: "100%"
- Compound: "CCn1c(C(=O)N(C2CC2)C2CC2)cc2c3c(ncn3C)c(Nc3cc(C)n(C)n3)nc21 (100 nM)"
  normalised response: "106%"
- Compound: "CO[C@@H]1[C@H](N(C)C(=O)c2ccccc2)C[C@H]2O[C@]1(C)n1c3ccccc3c3c4c(c5c6ccccc6n2c5c31)C(=O)NC4 [Midostaurin] (100 nM)"
  normalised response: "102%"
- Compound: "CNC(=O)c1ccccc1Sc1ccc2c(/C=C/c3ccccn3)n[nH]c2c1 [Axitinib] (100 nM)"
  normalised response: "102%"
- Compound: "CN(C)C(=N)NC(=N)N [Metformin] (1000 nM)"
  normalised response: "108%"

Retrieve normalised response measured for Nc1ccn([C@@H]2O[C@H](CO)[C@@H](O)C2(F)F)c(=O)n1 [Gemcitabine] (10 nM) and print it.
64.2%
